Would you mind telling me the reported IC50 of each entry?
# TARGET_SYSTEM: human TLR7 (Homo sapiens, UniProt Q9NYK1)
# Sequence (Q9NYK1 27-1049): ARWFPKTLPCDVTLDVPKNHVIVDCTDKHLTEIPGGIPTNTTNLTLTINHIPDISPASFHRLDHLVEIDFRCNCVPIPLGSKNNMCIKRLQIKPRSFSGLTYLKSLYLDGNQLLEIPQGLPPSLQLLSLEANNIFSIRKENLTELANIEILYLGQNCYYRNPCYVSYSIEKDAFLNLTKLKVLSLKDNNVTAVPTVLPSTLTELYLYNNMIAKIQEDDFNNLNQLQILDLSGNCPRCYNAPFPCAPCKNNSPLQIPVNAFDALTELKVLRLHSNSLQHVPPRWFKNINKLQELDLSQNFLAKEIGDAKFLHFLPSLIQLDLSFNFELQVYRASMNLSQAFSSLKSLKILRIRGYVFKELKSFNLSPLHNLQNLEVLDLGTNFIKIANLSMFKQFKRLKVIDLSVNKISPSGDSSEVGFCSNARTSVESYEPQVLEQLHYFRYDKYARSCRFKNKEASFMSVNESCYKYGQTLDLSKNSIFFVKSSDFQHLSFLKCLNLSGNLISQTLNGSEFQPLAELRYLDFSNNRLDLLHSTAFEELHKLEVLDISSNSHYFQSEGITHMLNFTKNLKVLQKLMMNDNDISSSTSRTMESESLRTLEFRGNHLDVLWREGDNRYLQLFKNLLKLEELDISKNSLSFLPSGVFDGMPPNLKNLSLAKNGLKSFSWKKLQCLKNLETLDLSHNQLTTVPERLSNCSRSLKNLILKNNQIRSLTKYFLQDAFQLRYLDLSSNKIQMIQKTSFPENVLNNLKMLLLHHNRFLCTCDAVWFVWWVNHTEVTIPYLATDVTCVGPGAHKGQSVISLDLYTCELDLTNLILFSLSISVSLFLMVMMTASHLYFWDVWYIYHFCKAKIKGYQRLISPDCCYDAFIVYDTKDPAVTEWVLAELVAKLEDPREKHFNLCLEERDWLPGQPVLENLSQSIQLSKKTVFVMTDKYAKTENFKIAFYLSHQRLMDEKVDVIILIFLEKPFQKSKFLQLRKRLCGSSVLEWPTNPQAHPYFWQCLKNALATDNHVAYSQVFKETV
# ASSAY_REMARKS: TLR7 inhibition reporter assay (HEK-Blue cells, SEAP reporter)
# PROTOCOL_CONDITIONS: HEK-Blue cells overexpressing human TLR7; stimulated with gardiquimod 7.5 μM; 22 hour incubation; SEAP readout

Exercise: # get_value(readout='IC50', item= Cc1cc(-c2ccc(N3CCN(CC(C)C)CC3)cc2)cn2cc(-c3ccc(S(C)(=O)=O)cc3)nc12 )
Solution: > 50 µM

Exercise: # get_value(readout='IC50', item= CC(C)CN1C2CCC1CC(N1CCC([C@H]3CCc4nc(-c5ccc(S(C)(=O)=O)cc5)cn4C3)CC1)C2 (single isomer, unassigned) [Example 80] )
Solution: > 50 µM

Exercise: # get_value(readout='IC50', item= Cc1cc(C2CCN(C3CCN(CC(C)C)CC3)CC2)cn2nc(-c3ccc(S(C)(=O)=O)cc3)nc12 )
Solution: > 50 µM

Each recorded value in this set is attributed to patent US12486267B2.
